# studyTarget: Transient receptor potential cation channel subfamily V member 1 (Rattus norvegicus)
# Sequence (O35433 whole entry): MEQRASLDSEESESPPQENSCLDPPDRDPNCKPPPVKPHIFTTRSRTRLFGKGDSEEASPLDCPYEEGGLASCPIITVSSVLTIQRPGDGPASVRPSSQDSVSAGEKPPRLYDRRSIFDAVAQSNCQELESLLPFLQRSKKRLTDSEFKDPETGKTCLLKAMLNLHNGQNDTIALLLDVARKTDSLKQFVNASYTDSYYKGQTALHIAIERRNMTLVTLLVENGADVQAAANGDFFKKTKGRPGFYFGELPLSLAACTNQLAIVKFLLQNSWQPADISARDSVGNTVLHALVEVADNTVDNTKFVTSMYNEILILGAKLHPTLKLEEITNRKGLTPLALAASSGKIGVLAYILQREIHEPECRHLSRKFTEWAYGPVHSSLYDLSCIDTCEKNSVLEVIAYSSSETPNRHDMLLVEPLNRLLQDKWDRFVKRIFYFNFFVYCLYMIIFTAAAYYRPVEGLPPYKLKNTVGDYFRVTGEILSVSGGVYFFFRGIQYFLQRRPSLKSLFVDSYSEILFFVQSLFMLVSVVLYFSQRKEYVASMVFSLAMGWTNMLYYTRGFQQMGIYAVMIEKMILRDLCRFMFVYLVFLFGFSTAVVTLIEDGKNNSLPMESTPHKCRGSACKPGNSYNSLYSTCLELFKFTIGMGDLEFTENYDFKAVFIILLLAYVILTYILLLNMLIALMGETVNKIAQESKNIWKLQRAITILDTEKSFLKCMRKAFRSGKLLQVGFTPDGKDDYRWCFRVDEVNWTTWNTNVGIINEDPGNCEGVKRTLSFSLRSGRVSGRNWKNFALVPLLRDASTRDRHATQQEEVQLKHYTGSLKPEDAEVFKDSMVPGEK
# assaySummary: Antagonist activity at rat TRPV1 expressed in HEK293 cells assessed as inhibition of capsaicin-induced intracellular Ca2+ level by FLIPR assay
# Format: functional, cell-based
pIC50: −log10 of the molar value.
Mark Criterion not met for pIC50 values under 6, and Criterion met for everything at or above.

Consider the following illustrative entries.
compound	studyTarget	assignedCategory
CN(C)CCN1CCN(c2nc3c(c(Nc4ccc(C(F)(F)F)cc4)n2)CCN(c2ncccc2C(F)(F)F)CC3)CC1	Transient receptor potential cation channel subfamily V member 1 (Rattus norvegicus)	Criterion not met
COCCN1CCN(c2nc3c(c(Nc4ccc(C(F)(F)F)cc4)n2)CCN(c2ncccc2C(F)(F)F)CC3)CC1	Transient receptor potential cation channel subfamily V member 1 (Rattus norvegicus)	Criterion met
CC(C)(C)OC(=O)N1CCCC(Nc2nc3c(c(Nc4ccc(C(F)(F)F)cc4)n2)CCN(c2ncccc2C(F)(F)F)CC3)C1 (stereo not drawn)	Transient receptor potential cation channel subfamily V member 1 (Rattus norvegicus)	Criterion met

q: Tell me whether pIC50 is at least 6 here: "CN(C)[C@H]1CCN(c2nc3c(c(Nc4ccc(C(F)(F)F)cc4)n2)CCN(c2ncccc2C(F)(F)F)CC3)C1"
a: Criterion met

q: Tell me whether pIC50 is at least 6 here: "CCN1CCN(c2nc3c(c(Nc4ccc(C(F)(F)F)cc4)n2)CCN(c2ncccc2C(F)(F)F)CC3)CC1"
a: Criterion met

q: Tell me whether pIC50 is at least 6 here: CN1CCCC(N(C)c2nc3c(c(Nc4ccc(C(F)(F)F)cc4)n2)CCN(c2ncccc2C(F)(F)F)CC3)C1 (stereo not drawn)
a: Criterion not met

q: Tell me whether pIC50 is at least 6 here: NC1CCN(c2nc3c(c(Nc4ccc(C(F)(F)F)cc4)n2)CCN(c2ncccc2C(F)(F)F)CC3)C1 (stereo not drawn)
a: Criterion not met
